Listed below: self-splicing fitness (ln) values for each entry.
TEST_DESCRIPTION: self-splicing fitness, log relative to wild type (ln ratio); higher = more splicing; Tetrahymena group I intron in knt gene, E. coli kanamycin selection, DiMSum; sequences stand for … in CUCUCU…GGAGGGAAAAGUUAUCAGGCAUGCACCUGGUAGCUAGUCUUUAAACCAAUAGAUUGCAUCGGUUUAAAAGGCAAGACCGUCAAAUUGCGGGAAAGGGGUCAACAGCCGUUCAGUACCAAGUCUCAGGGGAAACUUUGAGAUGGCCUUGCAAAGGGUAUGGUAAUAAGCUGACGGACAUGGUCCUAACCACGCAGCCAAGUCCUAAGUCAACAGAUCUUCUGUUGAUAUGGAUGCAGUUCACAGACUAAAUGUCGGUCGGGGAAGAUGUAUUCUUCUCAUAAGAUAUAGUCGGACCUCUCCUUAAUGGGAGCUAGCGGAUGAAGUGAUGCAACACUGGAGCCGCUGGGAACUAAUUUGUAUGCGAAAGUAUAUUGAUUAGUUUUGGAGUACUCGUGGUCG;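 note: selection with 25 µg/mL kanamycin versus none on LB agar overnight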
MEASUREMENT_PARAMETERS: 30 °C
Output spec: single numeric token, no unit.

Worked set:
INSERT INTO assay_data (biopolymer_sequence, measurement_label, quantitative_readout) VALUES
  ('ACUAAGCAAUAUUACGACCG', 'self-splicing fitness (ln)', -0.45),
  ('ACGAAGCAAUAUUACGGCAU', 'self-splicing fitness (ln)', -0.981),
  ('UAAGAGCAAUAUUACGCCGA', 'self-splicing fitness (ln)', -2.94),
  ('CCUCAGCAAUAUUACGUUUA', 'self-splicing fitness (ln)', -4.17),
  ('AUAAAGCAAUAUUACGAACC', 'self-splicing fitness (ln)', -1.28),
  ('UGUGAGCAAUAUUACGACGC', 'self-splicing fitness (ln)', -2.98),
  ('GUAUAGCAAUAUUACGCCCG', 'self-splicing fitness (ln)', -1.63),
  ('GUCAAGCAAUAUUACGCCAU', 'self-splicing fitness (ln)', -4.64),
  ('GGCCAGCAAUAUUACGUCGA', 'self-splicing fitness (ln)', -2.72),
  ('ACUUAGCAAUAUUACGACCG', 'self-splicing fitness (ln)', -0.573);

Give a short answer stating reported self-splicing fitness (ln) for `GCUGAGCAAUAUUACGUAGU` .
-2.86

###

TEST_DESCRIPTION: self-splicing fitness, log relative to wild type (ln ratio); higher = more splicing; Tetrahymena group I intron in knt gene, E. coli kanamycin selection, DiMSum; sequences stand for … in CUCUCU…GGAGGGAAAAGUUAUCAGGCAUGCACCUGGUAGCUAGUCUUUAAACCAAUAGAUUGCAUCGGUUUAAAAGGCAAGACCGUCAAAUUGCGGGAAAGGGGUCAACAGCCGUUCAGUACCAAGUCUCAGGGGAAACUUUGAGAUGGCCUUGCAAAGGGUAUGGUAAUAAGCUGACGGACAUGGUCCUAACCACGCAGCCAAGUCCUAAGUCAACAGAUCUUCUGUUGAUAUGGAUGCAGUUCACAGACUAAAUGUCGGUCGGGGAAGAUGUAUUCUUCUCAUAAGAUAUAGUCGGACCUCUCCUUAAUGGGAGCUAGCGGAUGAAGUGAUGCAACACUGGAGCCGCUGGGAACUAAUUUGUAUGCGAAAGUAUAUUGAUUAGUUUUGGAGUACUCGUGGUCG
MEASUREMENT_PARAMETERS: 37 °C
Listed below: self-splicing fitness (ln) values for each entry.

Worked set:
INSERT INTO measurements (biopolymer_sequence, result) VALUES
  ('GCGGAGCAAUAUUACGAGGA', -2.66),
  ('CUUAAGCAAUAUUACGAUGA', -0.126),
  ('UAACAGCAAUAUUACGACGC', -1.76),
  ('ACGCAGCAAUAUUACGGUUA', -1.04),
  ('ACCAAGCAAUAUUACGUACG', -1.28);

Give a short answer stating reported self-splicing fitness (ln) for `AGCGAGCAAUAUUACGGAGG` .
-1.53

Give a short answer stating reported self-splicing fitness (ln) for `GCCGAGCAAUAUUACGAGUG` .
-2.16

Give a short answer stating reported self-splicing fitness (ln) for `UCGAAGCAAUAUUACGCGUC` .
-0.484

###

TEST_DESCRIPTION: self-splicing fitness, log relative to wild type (ln ratio); higher = more splicing; Tetrahymena group I intron in knt gene, E. coli kanamycin selection, DiMSum; sequences stand for … in CUCUCU…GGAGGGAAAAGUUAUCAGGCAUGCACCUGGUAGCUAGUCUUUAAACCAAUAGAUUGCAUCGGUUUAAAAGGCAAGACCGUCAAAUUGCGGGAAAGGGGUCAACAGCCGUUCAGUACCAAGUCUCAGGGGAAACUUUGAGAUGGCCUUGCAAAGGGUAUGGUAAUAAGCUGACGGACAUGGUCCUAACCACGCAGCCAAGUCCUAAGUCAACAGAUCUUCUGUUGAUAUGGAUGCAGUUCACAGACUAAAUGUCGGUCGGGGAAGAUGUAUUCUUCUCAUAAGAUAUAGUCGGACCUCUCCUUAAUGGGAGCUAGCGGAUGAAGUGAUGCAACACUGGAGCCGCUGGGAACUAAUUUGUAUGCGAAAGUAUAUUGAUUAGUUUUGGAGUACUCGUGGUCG
MEASUREMENT_PARAMETERS: 37 °C
Listed below: self-splicing fitness (ln) values for each entry.
Output spec: single numeric token, no unit.

Worked set:
INSERT INTO measurements (biopolymer_sequence, quantitative_readout) VALUES
  ('AGUGAGCAAUAUUACGGUAU', -2.31),
  ('AAAUAGCAAUAUUACGCAAU', -0.689),
  ('AGGGAGCAAUAUUACGUGCG', -2.4);

Consider now this further sequence.
Give a short answer stating reported self-splicing fitness (ln) for `CCGUAGCAAUAUUACGAGAA` .
-1.03

###

TEST_DESCRIPTION: self-splicing fitness, log relative to wild type (ln ratio); higher = more splicing; Tetrahymena group I intron in knt gene, E. coli kanamycin selection, DiMSum; sequences stand for … in CUCUCU…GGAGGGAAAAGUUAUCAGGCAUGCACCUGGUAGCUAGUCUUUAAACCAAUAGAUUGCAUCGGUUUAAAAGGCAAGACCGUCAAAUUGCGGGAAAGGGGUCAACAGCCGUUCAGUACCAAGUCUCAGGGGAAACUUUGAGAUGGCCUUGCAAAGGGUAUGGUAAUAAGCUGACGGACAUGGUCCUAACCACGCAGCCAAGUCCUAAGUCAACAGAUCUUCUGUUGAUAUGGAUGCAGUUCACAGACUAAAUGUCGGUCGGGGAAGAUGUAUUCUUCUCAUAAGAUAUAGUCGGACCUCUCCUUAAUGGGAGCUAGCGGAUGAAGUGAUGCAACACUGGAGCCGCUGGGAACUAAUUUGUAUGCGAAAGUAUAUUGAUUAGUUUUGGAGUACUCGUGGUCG
MEASUREMENT_PARAMETERS: 30 °C
MEASUREMENT_LABEL: self-splicing fitness (ln)

Worked set:
INSERT INTO measurements (biopolymer_sequence, measurement_label, result) VALUES
  ('AUUGAGCAAUAUUACGCGAG', 'self-splicing fitness (ln)', -1.83),
  ('AGCCAGCAAUAUUACGAGCA', 'self-splicing fitness (ln)', -0.932),
  ('CGGCAGCAAUAUUACGCAGU', 'self-splicing fitness (ln)', -3.02),
  ('AUCGAGCAAUAUUACGAUUG', 'self-splicing fitness (ln)', -4.49),
  ('UGGCAGCAAUAUUACGAAGA', 'self-splicing fitness (ln)', -1.98);

Give a short answer stating reported self-splicing fitness (ln) for `GUUCAGCAAUAUUACGCACC` .
-1.33

Give a short answer stating reported self-splicing fitness (ln) for `AAAGAGCAAUAUUACGAUUA` .
-2.18

Give a short answer stating reported self-splicing fitness (ln) for `GUGCAGCAAUAUUACGAGGG` .
-2.79

Give a short answer stating reported self-splicing fitness (ln) for `UACAAGCAAUAUUACGGAGC` .
-3.08

Give a short answer stating reported self-splicing fitness (ln) for `GUAUAGCAAUAUUACGUAAU` .
-2.43

Give a short answer stating reported self-splicing fitness (ln) for `GGAUAGCAAUAUUACGAGGC` .
-3.93

Give a short answer stating reported self-splicing fitness (ln) for `UAUGAGCAAUAUUACGUUUU` .
-4.02

Give a short answer stating reported self-splicing fitness (ln) for `GACGAGCAAUAUUACGACUA` .
-1.94

Give a short answer stating reported self-splicing fitness (ln) for `CAGUAGCAAUAUUACGGAGG` .
-1.61

###

TEST_DESCRIPTION: self-splicing fitness, log relative to wild type (ln ratio); higher = more splicing; Tetrahymena group I intron in knt gene, E. coli kanamycin selection, DiMSum; sequences stand for … in CUCUCU…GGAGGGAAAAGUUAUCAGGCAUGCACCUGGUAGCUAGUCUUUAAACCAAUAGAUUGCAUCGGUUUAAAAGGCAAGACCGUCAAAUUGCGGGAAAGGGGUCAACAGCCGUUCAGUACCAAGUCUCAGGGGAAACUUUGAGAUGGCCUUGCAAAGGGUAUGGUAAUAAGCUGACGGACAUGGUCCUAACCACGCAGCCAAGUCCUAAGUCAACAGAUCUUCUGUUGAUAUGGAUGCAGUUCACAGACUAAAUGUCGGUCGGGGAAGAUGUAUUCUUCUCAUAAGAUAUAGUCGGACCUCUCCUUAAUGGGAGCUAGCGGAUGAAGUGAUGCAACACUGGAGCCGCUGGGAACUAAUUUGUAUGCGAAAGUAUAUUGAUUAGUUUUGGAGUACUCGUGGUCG
MEASUREMENT_PARAMETERS: 37 °C
Listed below: self-splicing fitness (ln) values for each entry.

Worked set:
INSERT INTO measurements (biopolymer_sequence, result) VALUES
  ('GGUGAGCAAUAUUACGAUAC', -0.811),
  ('GCGAAGCAAUAUUACGUCGA', -0.792),
  ('CUUCAGCAAUAUUACGUAUA', -1.98);

Consider now this further sequence.
Give a short answer stating reported self-splicing fitness (ln) for `AGCAAGCAAUAUUACGGGGU` .
-2
